experimental-details: Lactate dehydrogenase (LDH) release assay
Type: cell-based
run-conditions: LDH: Cytotoxicity assay: EC50
Positions of bridges follow the written chain, without caps; N, C: chain ends. Non-standard residues stand in square brackets, D forms with d. Residues, ends and D or L forms follow the SMILES beside them. Lys(N3) = [N-]=[N+]=NCCCC[C@H](N)C(=O)O; R8 = C=CCCCCCC[C@@](C)(N)C(=O)O; Cba = N[C@@H](CC1CCC1)C(=O)O; S5 = C=CCCC[C@](C)(N)C(=O)O; βAla = NCCC(=O)O; Sar = CNCC(=O)O
recorded-metric: EC50

// query Form field: reported EC50 of CC(=O)N[C@@H](CCCCN=[N+]=[N-])C(=O)NCCC(=O)N[C@@H](CC(C)C)C(=O)N[C@H](C(=O)N[C@@H](Cc1ccccc1)C(=O)N[C@]1(C)CCCCCCC=CCCC[C@@](C)(C(=O)N[C@@H](CO)C(=O)N[C@@H](C)C(=O)N[C@@H](C)C(N)=O)NC(=O)[C@H](CC2CCC2)NC(=O)[C@H](CCC(N)=O)NC(=O)CN(C)C(=O)[C@H](Cc2c[nH]c3ccccc23)NC(=O)[C@H](Cc2ccc(O)cc2)NC(=O)[C@H](CCC(=O)O)NC1=O)[C@@H](C)O [MP-351] (Ac-[Lys(N3)][βAla]LTF[R8]EYW[Sar]Q[Cba][S5]SAA-NH2; staple 6-13)
// result > 50 µM

---

Let's look at some compounds and their measured solubility kinetic.
experimental-details: Solubility assay (kinetic solubility, PBS pH 7)
Assay type: physicochemical
run-conditions: pH 7, aqueous buffer, kinetic from dmso stock, pH 7, PBS; read-out: Solubility
Positions of bridges follow the written chain, without caps; N, C: chain ends. Non-standard residues stand in square brackets, D forms with d. Residues, ends and D or L forms follow the SMILES beside them. Lys(N3) = [N-]=[N+]=NCCCC[C@H](N)C(=O)O; R8 = C=CCCCCCC[C@@](C)(N)C(=O)O; Cba = N[C@@H](CC1CCC1)C(=O)O; S5 = C=CCCC[C@](C)(N)C(=O)O; βAla = NCCC(=O)O
Numeric answer plus unit only.

// query Form field: reported solubility kinetic of `CC(=O)N[C@@H](CCCCN=[N+]=[N-])C(=O)NCCC(=O)N[C@@H](CC(C)C)C(=O)N[C@H](C(=O)N[C@@H](Cc1ccccc1)C(=O)N[C@]1(C)CCCCCCC=CCCC[C@@](C)(C(=O)N[C@@H](CO)C(=O)N[C@@H](C)C(=O)N[C@@H](CCC(=O)O)C(N)=O)NC(=O)[C@H](CC2CCC2)NC(=O)[C@H](CCC(N)=O)NC(=O)[C@H](C)NC(=O)[C@H](Cc2c[nH]c3ccccc23)NC(=O)[C@H](Cc2ccc(O)cc2)NC(=O)[C@H](CCC(=O)O)NC1=O)[C@@H](C)O`
// result 148 µM

// query Form field: reported solubility kinetic of CC(=O)N[C@@H](CCCCN=[N+]=[N-])C(=O)NCCC(=O)N[C@@H](CC(C)C)C(=O)N[C@H](C(=O)N[C@@H](Cc1ccccc1)C(=O)N[C@]1(C)CCCCCCC=CCCC[C@@](C)(C(=O)N[C@@H](CO)C(=O)N[C@@H](C)C(=O)N[C@@H](C)C(N)=O)NC(=O)[C@H](CC2CCC2)NC(=O)[C@H](CCC(N)=O)NC(=O)[C@H](C)NC(=O)[C@H](Cc2c[nH]c3ccccc23)NC(=O)[C@H](Cc2ccc(O)cc2)NC(=O)[C@H](Cc2c[nH]cn2)NC1=O)[C@@H](C)O [MP-175, AZIDE-ATSP-7041 (E5H)]
// result 2 µM

// query Form field: reported solubility kinetic of CC(=O)N[C@@H](CCCCN=[N+]=[N-])C(=O)NCCC(=O)N[C@@H](CC(C)C)C(=O)N[C@H](C(=O)N[C@@H](CO)C(=O)N[C@]1(C)CCCCCCC=CCCC[C@@](C)(C(=O)N[C@@H](CO)C(=O)N[C@@H](C)C(=O)N[C@@H](C)C(N)=O)NC(=O)[C@H](CO)NC(=O)[C@H](CCC(N)=O)NC(=O)[C@H](C)NC(=O)[C@H](CO)NC(=O)[C@H](Cc2ccc(O)cc2)NC(=O)[C@H](CCC(=O)O)NC1=O)[C@@H](C)O [MP-3352] (Ac-[Lys(N3)][βAla]LTS[R8]EYSAQS[S5]SAA-NH2; staple 6-13)
// result 28 µM

// query Form field: reported solubility kinetic of CC(=O)N[C@@H](CCCCN=[N+]=[N-])C(=O)NCCC(=O)N[C@@H](CC(C)C)C(=O)N[C@H](C(=O)N[C@@H](Cc1ccccc1)C(=O)N[C@]1(C)CCCCCCC=CCCC[C@@](C)(C(=O)N[C@@H](CO)C(=O)N[C@@H](C)C(=O)N[C@@H](C)C(N)=O)NC(=O)[C@H](CC2CCC2)NC(=O)[C@H](CCC(N)=O)NC(=O)[C@H](C)NC(=O)[C@H](Cc2c[nH]c3ccccc23)NC(=O)[C@H](Cc2ccccc2)NC(=O)[C@H](CCC(=O)O)NC1=O)[C@@H](C)O [MP-028] (Ac-[Lys(N3)][βAla]LTF[R8]EFWAQ[Cba][S5]SAA-NH2; staple 6-13)
// result 6 µM
